pIC50: −log10 of the molar value.
Literature survey of pIC50 (system: Ubiquitin carboxyl-terminal hydrolase 28 (Homo sapiens)).

Recorded results for 8 compounds are shown here.
| STRUCTURE NOTATION | PARAMETER MEASURED | RESULT |
| --- | --- | --- |
| CCCc1nc2sc3c(NC4CCCCC4)ncnc3c2c2c1CCC2 | pIC50 | 4.00 to 5.00 |
| CCCc1nc2sc3c(NCCc4cc(OC)c(OC)c(OC)c4)ncnc3c2c2c1CCC2 | pIC50 | 5.00 to 6.00 |
| CCN(CC)S(=O)(=O)c1cccc(NC(=O)Cc2ccc(Cl)c(Cl)c2)c1 | pIC50 | 5.00 to 6.00 |
| CCCc1nc2sc(C(=O)NC[C@H](C)c3ccccc3)c(N)c2c2c1CCC2 | pIC50 | > 6.00 |
| CCCc1nc2sc3c(NCCc4cccc(OC)c4)ncnc3c2c2c1CCC2 | pIC50 | 4.00 to 5.00 |
| Cc1ccc(S(=O)(=O)N(C)C)cc1NC(=O)CCc1ccccc1 | pIC50 | < 4.00 |
| CCCc1nc2sc(C(=O)NC[C@@H](C)c3ccccc3)c(N)c2c2c1CCC2 | pIC50 | > 6.00 |
| Cc1oc(Cc2ccnc(Cl)c2)nc1-c1ccc(OCc2ccc(C(=O)N(C)C)cn2)cc1 | pIC50 | 6.30 to 7.30 |

Exercise: Which pIC50 value is on record for Cc1oc(Cc2cccc(Cl)c2)nc1-c1ccc(OCc2ccc(C(=O)N(C)C)cn2)cc1 ?
Key: > 7.30

---

Literature survey of pIC50 (system: Ubiquitin carboxyl-terminal hydrolase 28 (Homo sapiens, UniProt Q96RU2)).
pIC50: −log10 of the molar value.

Recorded results for 3 molecules are shown here.
| STRUCTURE NOTATION | PARAMETER MEASURED | RESULT |
| --- | --- | --- |
| CCc1ccc(S(=O)(=O)N(C)C)cc1NC(=O)Cc1ccc(Cl)c(Cl)c1 | pIC50 | 5.00 to 6.00 |
| CN[C@@H]1CCN(C(=O)c2ccc(COc3ccc(-c4nc(Cc5cccc(Cl)c5)oc4C)cc3)nc2)C1 | pIC50 | > 7.30 |
| COc1ccc(CCNc2ncnc3c2sc2ncc4c(c23)CCC4)cc1OC | pIC50 | 5.00 to 6.00 |

Exercise: Recorded pIC50 for c1ccc2cc(Cc3nc(-c4ccncc4)no3)ccc2c1 with Ubiquitin carboxyl-terminal hydrolase 28 (Homo sapiens, UniProt Q96RU2), please?
Key: 5.00 to 6.00

Exercise: Next entry: CN(C)C(=O)c1ccc(OCc2ccc(-c3nc(Cc4cccc(Cl)c4)no3)cc2)cc1
Key: 6.30 to 7.30

---

Literature survey of pIC50 (system: Ubiquitin carboxyl-terminal hydrolase 28 (Homo sapiens, UniProt Q96RU2)).
pIC50: −log10 of the molar value.

Recorded results for 3 compounds are shown here.
| STRUCTURE NOTATION | SYSTEM TESTED | RESULT |
| --- | --- | --- |
| Cc1oc(Cc2cccc(Cl)c2)nc1-c1ccc(OCc2cnc(C(=O)N(C)C)cn2)cc1 | Ubiquitin carboxyl-terminal hydrolase 28 (Homo sapiens, UniProt Q96RU2) | > 7.30 |
| C/C(=C\c1ccc(-c2nc(Cc3cccc(Cl)c3)no2)cc1)C(=O)N[C@@H]1C[C@@H](C)N(C#N)C1 | Ubiquitin carboxyl-terminal hydrolase 28 (Homo sapiens, UniProt Q96RU2) | 6.00 to 6.30 |
| CCCc1nc2sc(C(=O)N[C@H](C)Cc3ccc(OC)cc3)c(N)c2c2c1CCC2 | Ubiquitin carboxyl-terminal hydrolase 28 (Homo sapiens, UniProt Q96RU2) | > 6.00 |

Please find the next compound below.
Exercise: Which pIC50 value is on record for c1ccc(-c2nc(-c3cccnc3)no2)nc1 ?
Key: < 4.00
